# Tested on: cancer cell lines from the cancer cell line encyclopedia (CCLE)
# procedure-details: Cell line profiling (CLiP) proliferation experiment
# Format: cell-based
# condition-summary: Ri-1, RI-1 cells; read-out: Crossing Point
reported-property: IC50
Entry format: amount then unit.

Challenge: // lookup IC50 for "CC(C)[C@@]12C[C@@H](O)[C@@](C)(O1)[C@@H]1CC[C@@H](C)[C@H]1[C@@H]2OC(=O)/C=C/c1ccccc1"
Response given: 9.99 µM

---

# Tested on: cancer cell lines from the cancer cell line encyclopedia (CCLE)
# procedure-details: Cell line profiling (CLiP) proliferation experiment
# Format: cell-based
# condition-summary: Homo sapiens, SW-620, SW620 (large_intestine, adenocarcinoma); read-out: Crossing Point
reported-property: pIC50
Answers are plain numbers, as −log10 of the molar value.

Challenge: // lookup pIC50 for "CC(C)[C@@]12C[C@@H](O)[C@@](C)(O1)[C@@H]1CC[C@@H](C)[C@H]1[C@@H]2OC(=O)/C=C/c1ccccc1"
Response given: 4.89

Data credit: paper PMC4476799
